# studySystem: LTK (human)
# methodSummary: KINOMEscan competition binding
# experimentalContext: compound 10.0 µM
reportedProperty: kinase still bound, per cent of control (%)
Please give a number only; it is taken to be in %.

Use the examples below as a reference point.
Given the compound C[C@@H](Oc1cc(-n2cnc3ccc(CN4CCN(C)CC4)cc32)sc1C(N)=O)c1ccccc1C(F)(F)F , what is its reported kinase still bound, per cent of control?
100

Given the compound CN(C)C/C=C/C(=O)Nc1cccc(Nc2ncc3c(n2)N(C)c2ccccc2C(=O)N3C)c1 , what is its reported kinase still bound, per cent of control?
100

Given the compound CCC(=O)N1CCN(c2ccc(-n3c(=O)ccc4cnc5ccc(-c6cnc7ccccc7c6)cc5c43)cc2C(F)(F)F)CC1 , what is its reported kinase still bound, per cent of control?
77

Given the compound CCN1CCN(Cc2ccc(Nc3ncc4c(n3)N(C)c3ccccc3C(=O)N4C)cc2C(F)(F)F)CC1 , what is its reported kinase still bound, per cent of control?
100

Given the compound Cc1ccc(C(=O)Nc2cccc(C(F)(F)F)c2)cc1Nc1cncc(C(N)=O)c1 , what is its reported kinase still bound, per cent of control?
100

Given the compound O=C(NOC[C@H](O)CO)c1ccc(F)c(F)c1Nc1ccc(I)cc1F , what is its reported kinase still bound, per cent of control?
100

Given the compound C=CC(=O)Nc1cc(NC(=O)c2ccc(C)c(NC(=O)c3ccno3)c2)cc(C(F)(F)F)c1 , what is its reported kinase still bound, per cent of control?
89

Given the compound O=C1Nc2ccc(I)cc2/C1=C/c1cc(Br)c(O)c(Br)c1 , what is its reported kinase still bound, per cent of control?
47

Given the compound CCCS(=O)(=O)Nc1ccc(F)c(C(=O)c2c[nH]c3ncc(-c4ccc(Cl)cc4)cc23)c1F , what is its reported kinase still bound, per cent of control?
100

Given the compound C=CC(=O)Nc1cccc(Oc2nc(Nc3ccc(N4CCN(C)CC4)cc3OC)ncc2Cl)c1 , what is its reported kinase still bound, per cent of control?
3.6

---
Given the compound COc1cc(N2CCN(C)CC2)ccc1Nc1nc(N)c(C(=O)c2c(Cl)cccc2Cl)s1 , what is its reported kinase still bound, per cent of control?
4.2

Given the compound N#Cc1c(NC(=O)c2cccc3ccccc23)sc2c1CCCC2 , what is its reported kinase still bound, per cent of control?
90

Given the compound C=CC(=O)Nc1cccc(Nc2nc(N[C@H]3CC[C@H](N(C)C)CC3)nc3c2ncn3C(C)C)c1 , what is its reported kinase still bound, per cent of control?
88

Given the compound COc1cc(C(=O)NC2CCN(C)CC2)ccc1Nc1ncc2c(n1)N(C1CCCC1)C(C)CC(=O)N2C (stereo not given) , what is its reported kinase still bound, per cent of control?
100

Given the compound Cn1c(=O)n(-c2ccc(C(C)(C)C#N)cc2)c2c3cc(-c4cnc5ccccc5c4)ccc3ncc21 , what is its reported kinase still bound, per cent of control?
33

Given the compound Cc1cc([C@@H](C)Nc2ccccc2C(=O)O)c2nc(N3CCOCC3)cc(=O)n2c1 , what is its reported kinase still bound, per cent of control?
95

Given the compound COc1cc(C(=O)NC2CCN(C)CC2)ccc1Nc1ncc2c(n1)N(C1CCCC1)CCC(=O)N2C(C)C , what is its reported kinase still bound, per cent of control?
100

Given the compound Cc1ccc2nc(NCCN)c3ncc(C)n3c2c1 , what is its reported kinase still bound, per cent of control?
95

Given the compound CC[C@@H]1C(=O)N(C)c2cnc(Nc3ccc(C(=O)NC4CCN(C)CC4)cc3OC)nc2N1C1CCCC1 , what is its reported kinase still bound, per cent of control?
24

Given the compound OCCCNc1cc(-c2ccnc(Nc3cccc(Cl)c3)n2)ccn1 , what is its reported kinase still bound, per cent of control?
100

Given the compound O=C(NC1CC1)c1cccc(-c2ccc3c(NC(=O)C4CC4)n[nH]c3c2)c1 , what is its reported kinase still bound, per cent of control?
100

Given the compound Nc1ccc(-c2ccc3ncc4ccc(=O)n(-c5cccc(C(F)(F)F)c5)c4c3c2)cn1 , what is its reported kinase still bound, per cent of control?
100

Given the compound Cc1ccc(NC(=O)c2cccc(C(C)(C)C#N)c2)cc1Nc1ccc2ncn(C)c(=O)c2c1 , what is its reported kinase still bound, per cent of control?
100

Given the compound CCOc1cc2ncc(C#N)c(Nc3ccc(OCc4ccccn4)c(Cl)c3)c2cc1NC(=O)/C=C/CN(C)C , what is its reported kinase still bound, per cent of control?
100

Given the compound O=C(O)c1ccc(Nc2ncc3c(n2)-c2ccc(Cl)cc2C(c2c(F)cccc2F)=NC3)cc1 , what is its reported kinase still bound, per cent of control?
62
